These entries and their values trace back to patent US20230272055A1.

# MPL-mutCALR AUC values compiled below
# measured-target: T1, human mutCALR on BaF3 cells stably expressing human MPL and human mutCALR (MPL-mutCALR cells) (human)
# T1 construct: also called mutant calreticulin
# T1 chain: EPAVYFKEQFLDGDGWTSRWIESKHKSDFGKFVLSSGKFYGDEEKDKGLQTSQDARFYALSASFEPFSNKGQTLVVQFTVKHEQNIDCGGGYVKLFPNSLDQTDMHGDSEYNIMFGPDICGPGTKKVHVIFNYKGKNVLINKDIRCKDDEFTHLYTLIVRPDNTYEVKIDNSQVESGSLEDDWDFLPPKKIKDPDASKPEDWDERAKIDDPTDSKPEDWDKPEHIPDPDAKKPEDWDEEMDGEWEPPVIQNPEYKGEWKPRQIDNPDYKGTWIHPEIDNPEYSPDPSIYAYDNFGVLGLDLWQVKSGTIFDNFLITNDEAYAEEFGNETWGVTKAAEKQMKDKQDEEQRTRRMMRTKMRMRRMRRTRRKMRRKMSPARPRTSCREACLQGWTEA
# assay-procedure: flow cytometry, BaF3 MPL-mutCALR cells

As a guide, the following entries are already answered.
anti-mutCALR antibody clone 61 (antibody, human IgG1, lambda, N297A, V domains shown) VH: EVQLVQSGAEVKKPGASVKVSCKVSGYTLTELSMQWVRQAPGKGLEWMGGFDPDAGETMYAEKFQGRLTVTEDTSTDTVYMELSSLRSEDTAVYFCATSPGYDFFDYWGQGTLVTVSS VL: QSALTQPASVSGSPGQSITISCTGTSSDVGGYNYVSWYQQHPGKAPKLMIYEVSNRPSGVSNRFSGSNSGNTATLTINRVEAGDEADYYCQVWDSSNDLLIFGGGTKLTVLG	62400
anti-mutCALR antibody clone 32 (antibody, human IgG1, lambda, V domains shown, human IgG1) VH: QVQLVQSGAEVKKPGATVKISCKVSGYSFTDYFIHWVQQAPGKGLAWVGLVDPEDGETIYAEKFQGRVTITADTSTDTAYMELSSLRSEDTAVYYCATPGGILTDPDAFDIWGQGTMVTVSS VL: QSALTQPASVSGSPGQSITISCTGTSSDVGGYNYVSWYQQHPGKAPKLMIYEVSNRPSGVSNRFSGSKSGNTASLTISGLQAEDEADYYCSSYTSSSTPYVFGTGTKVTVLG	52500
anti-mutCALR antibody clone 41 (antibody, human IgG1, lambda, V domains shown, human IgG1) VH: EVQLVQSGAEVKKPGASVKVSCKVSGYTLTELSMHWVRQAPGKGLEWMGLVDPEDGETIYAQKFQGRVTMTEDTSTDTAYMELSSLRSEDTAVYYCAREEWSGDGDDAFDIWGQGTMVTVSS VL: QSVLTQPPSVSAAPGQKVTISCSGSSSNIGSYSVSWYQQLPGTAPKLLIYDNNKRPSGIPDRFSGSNSGTSATLGITGLQTGDEADYYCGTWDSSLSAWVFGGGTKLTVLG	60600
anti-mutCALR antibody clone 73 (antibody, human IgG1, lambda, N297A, V domains shown) VH: EVQLVQSGAEVKKPGASVKVSCKVSGYTLTELSMQWVRQAPGKGLEWMGGFDPDEGETMYAEKFQGRLTVTEDTSTDTVYMELSSLRSEDTAVYFCATSPGYDFFDYWGQGTLVTVSS VL: SYVLTQPPSVSVAPGKTARITCTGTSSDVGGYNYVSWYQQKPGQAPVLVVYEVSNRPSGIPERFSGSNSGNTATLTISRVEAGDEADYYCQVWDSSNDLLIFGGGTKLTVLG	67600
anti-mutCALR antibody clone 11 (antibody, human IgG1, lambda, V domains shown, human IgG1) VH: EVRLVQSGAEVKKPGASVKVSCKVSGYTLTELSMQWVRQAPGKGLEWMGGFDPDDGETMYAEKFQGRLTVTEDTSTDTVYMELRSLTSEDTALYFCATSPGYDFFDYWGQGTLVTVSS VL: QSALTQPRSVSGSPGQSVTISCTGTSSDVGGYNYVSWYQQHPGKAPKLMIYDVSKRPSGVPDRFSGSNSGNTATLTINRVEAGDEADYYCQVWDSSNDLLIFGGGTKLTVLG	69700
anti-mutCALR antibody clone 58 (antibody, human IgG1, lambda, N297A, V domains shown) VH: EVQLVQSGAEVKKPGASVKVSCKVSGYTLTELSMQWVRQAPGKGLEWMGGFDPDEGETMYAEKFQGRLTVTEDTSTDTVYMELRSLTSEDTALYFCATSPGYDFFDYWGQGTLVTVSS VL: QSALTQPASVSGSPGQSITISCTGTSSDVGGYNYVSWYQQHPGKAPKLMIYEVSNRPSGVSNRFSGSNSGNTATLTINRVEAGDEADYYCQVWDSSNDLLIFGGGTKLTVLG	69800
anti-mutCALR antibody clone 81 (antibody, human IgG1, lambda, N297A, V domains shown) VH: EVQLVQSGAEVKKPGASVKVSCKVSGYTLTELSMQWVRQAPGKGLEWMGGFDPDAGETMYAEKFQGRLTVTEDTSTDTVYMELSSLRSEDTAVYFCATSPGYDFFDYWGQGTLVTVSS VL: SYVLTQPPSVSVAPGKTARITCGGNNIGSKSVHWYQQKPGQAPVLVVYDDSDRPSGIPERFSGSNSGNTATLTISRVEAGDEADYYCQVWDSSNDLLIFGGGTKLTVLG	52900
anti-mutCALR antibody clone 178 (antibody, human IgG1, lambda, N297A, V domains shown) VH: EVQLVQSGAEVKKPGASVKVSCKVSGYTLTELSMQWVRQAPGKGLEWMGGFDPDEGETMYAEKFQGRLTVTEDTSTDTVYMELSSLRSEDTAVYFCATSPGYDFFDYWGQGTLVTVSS VL: SYVLTQPPSVSVAPGQTARITCGGSDIGDEIVHWYQQKPGQAPVLVVYDDSDRPSGIPERFSGSNSGNTATLTISRAQAGDEADYYCQVWDSSSDHLIFGGGTKLTVLG	63600

query: State the recorded MPL-mutCALR AUC for this entry: anti-mutCALR antibody clone 189 (antibody, human IgG1, lambda, N297A, V domains shown) VH: EVQLVQSGAEVKKPGASVKVSCKVSGYTLTELSMQWVRQAPGKGLEWMGGFDPDDAETMYAEKFQGRLTVTEDTSTDTVYMELSSLRSEDTAVYFCATSPGYDFFDYWGQGTLVTVSS VL: SYVLTQPPSVSVAPGQTARITCGGSDIGDEIVHWYQQKPGQAPVLVVYDDSDRPSGIPERFSGSNSGNTATLTISRVEAGDEADYYCQVWDSSSDHLIFGGGTKLTVLG
result: 57200

query: State the recorded MPL-mutCALR AUC for this entry: anti-mutCALR antibody clone 83 (antibody, human IgG1, lambda, N297A, V domains shown) VH: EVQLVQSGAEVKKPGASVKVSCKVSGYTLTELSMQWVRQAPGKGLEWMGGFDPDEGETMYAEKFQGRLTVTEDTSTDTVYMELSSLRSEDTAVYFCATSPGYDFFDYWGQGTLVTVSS VL: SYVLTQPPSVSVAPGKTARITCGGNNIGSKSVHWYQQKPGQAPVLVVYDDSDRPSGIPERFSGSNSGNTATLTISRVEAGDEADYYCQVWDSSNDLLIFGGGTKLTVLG
result: 62800
